// data source = patent US20090281137A1

Counter-ions that a name gives are not always drawn.
value_type: melting point

Query :: Record request: melting point value, item CCC1(CCCN2CCc3sccc3C2)C(=O)Nc2ccc(Cl)cc21 (stereo not drawn)
Result :: 66 to 69 °C

Query :: Query CCC1(CCCCN2CC=C(c3ccc(Cl)cc3)CC2)C(=O)Nc2ccc(F)cc21 (stereo not drawn) next
Result :: 146 to 148 °C

Query :: # repeat for CCC1(CCCCN2CCc3sccc3C2)C(=O)Nc2c(Cl)cc(F)cc21 (stereo not drawn)
Result :: 194 to 196 °C

Query :: Try the molecule CCC1(CCCCN2CC=C(c3cccc(Cl)c3)CC2)C(=O)Nc2ccc(F)cc21 (stereo not drawn)
Result :: 112 to 114 °C

Query :: How about CCC1(CCCCN2CCc3sccc3C2)C(=O)Nc2ccccc21 (stereo not drawn) (as salt: hydrochloride) [Example 29, monohydrochloride] ?
Result :: 143 to 144 °C

Query :: Next molecule up: CCC1(CCCN2CCc3sccc3C2)C(=O)Nc2ccccc21 (stereo not drawn)
Result :: 130 to 132 °C

Query :: Try this molecule next: CCC1(CCCCN2CC=C(c3ccc(Cl)cc3)CC2)C(=O)Nc2ccccc21 (stereo not drawn)
Result :: 142 to 145 °C

Query :: Next: CC(C)CC1(CCCCN2CCc3sccc3C2)C(=O)Nc2ccccc21 (stereo not drawn)
Result :: 114 to 116 °C

Query :: CCC1(CCCCCN2CCc3sccc3C2)C(=O)Nc2ccccc21 (stereo not drawn) (as salt: oxalate) [Example 36, monooxalate] ?
Result :: 193 to 195 °C
